Assay read-out IC50; system under study: Somatostatin receptor type 5 (Homo sapiens, UniProt P35346).
Sequence (P35346 whole entry): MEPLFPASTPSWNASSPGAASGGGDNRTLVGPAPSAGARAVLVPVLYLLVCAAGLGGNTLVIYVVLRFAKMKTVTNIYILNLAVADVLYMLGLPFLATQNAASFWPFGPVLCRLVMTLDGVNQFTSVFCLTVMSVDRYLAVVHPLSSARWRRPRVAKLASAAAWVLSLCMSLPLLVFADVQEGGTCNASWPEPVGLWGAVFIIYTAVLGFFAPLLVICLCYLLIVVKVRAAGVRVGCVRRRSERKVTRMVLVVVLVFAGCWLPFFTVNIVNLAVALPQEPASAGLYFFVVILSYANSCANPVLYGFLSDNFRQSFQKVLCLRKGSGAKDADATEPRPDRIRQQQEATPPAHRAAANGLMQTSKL
Where a SMILES comes first, the peptide text is derived from it. Bridges are numbered along the chain shown (N, C = ends). [ ]: non-standard residue; d: D form.
# unit: nM | format: bare number

## Task Field request: IC50 | item: C[C@@H](O)[C@@H]1NC(=O)[C@H](CCCCN)NC(=O)[C@H](Cc2c[nH]c3ccccc23)NC(=O)[C@H](Cc2ccccc2)NC(=O)[C@H](Cc2ccccc2)NC(=O)[C@@H](N)CSSC[C@@H](C(=O)O)NC(=O)[C@H](Cc2ccccc2)NC1=O (H-CFFWKTFC-OH; disulfide 1-8)
## Result 46

## Task Requested read-out: IC50. Entry: C[C@@H](O)[C@@H]1NC(=O)[C@H](CCCCN)NC(=O)[C@@H](Cc2c[nH]c3ccccc23)NC(=O)[C@H](Cc2ccccc2)NC(=O)[C@H](Cc2ccccc2)NC(=O)[C@@H](N)CSSC[C@@H](C(=O)O)NC(=O)[C@H](Cc2ccccc2)NC1=O (H-CFF[dW]KTFC-OH; disulfide 1-8)
## Result 14

## Task Give the measured IC50 of C[C@@H](O)[C@@H]1NC(=O)[C@H](CCCCN)NC(=O)[C@@H](Cc2c[nH]c3ccccc23)NC(=O)[C@H](N(C)C(=O)c2ccccc2)NC(=O)[C@H](Cc2ccccc2)NC(=O)[C@H](N)CSSC[C@@H](C(=O)O)NC(=O)[C@H](Cc2ccccc2)NC1=O (stereo in doubt; 10) .
## Result 460

## Task Would you kindly share the measured IC50 for CN(C(=O)CO)[C@H]1NC(=O)[C@H](CCCCN)NC(=O)[C@@H](Cc2c[nH]c3ccccc23)NC(=O)[C@H](Cc2ccccc2)NC(=O)[C@H](Cc2ccccc2)NC(=O)[C@@H](N)CSSC[C@@H](C(=O)O)NC(=O)[C@H](Cc2ccccc2)NC1=O (stereo in doubt; 20) ?
## Result 211
